B1: Centrosomal protein of 55 kDa (Homo sapiens), Q53EZ4 (parent)
chain: MSSRSTKDLIKSKWGSKPSNSKSETTLEKLKGEIAHLKTSVDEITSGKGKLTDKERHRLLEKIRVLEAEKEKNAYQLTEKDKEIQRLRDQLKARYSTTTLLEQLEETTREGERREQVLKALSEEKDVLKQQLSAATSRIAELESKTNTLRLSQTVAPNCFNSSINNIHEMEIQLKDALEKNQQWLVYDQQREVYVKGLLAKIFELEKKTETAAHSLPQQTKKPESEGYLQEEKQKCYNDLLASAKKDLEVERQTITQLSFELSEFRRKYEETQKEVHNLNQLLYSQRRADVQHLEDDRHKTEKIQKLREENDIARGKLEEEKKRSEELLSQVQFLYTSLLKQQEEQTRVALLEQQMQACTLDFENEKLDRQHVQHQLHVILKELRKARNQITQLESLKQLHEFAITEPLVTFQGETENREKVAASPKSPTAALNESLVECPKCNIQYPATEHRDLLVHVEYCSK

- Variants of: B1
- testParameters: with pdc6i_human PDCD6IP
reportedProperty: effect of a mutation on the interaction

{"var": "A244P", "measuredValue": "with no effect"}
{"var": "C236R", "measuredValue": "with no effect"}
{"var": "R138Q", "measuredValue": "with no effect"}
{"var": "H57Q", "measuredValue": "with no effect"}
{"var": "E321K", "measuredValue": "with no effect"}
{"var": "R348K", "measuredValue": "with no effect"}
{"var": "L59F", "measuredValue": "with no effect"}
